System: SF-268
PROTOCOL: NCI tumour cell line growth inhibition, 48 h
The source made the active and inactive calls. Rule as the data show it: active = GI50 up to about 1.1 µM and inactive = higher. *1 amine or outer side, *2 acyl side, *3 side chain or, on linkers, in order; H or OH if unused. Where a SMILES comes first, the peptide text is derived from it. Bridges are numbered along the chain shown (N, C = ends). [ ]: non-standard residue; d: D form. The star is where a group is joined. X56 = CC(C)C(C)C(C(=O)[*:2])N(C)[*:1]; Picolinoyl(3-OH) = O=C(c1ncccc1O)*; NMePhg = CN[CH](C(=O)O)c1ccccc1; Hyp = O=C(O)[CH]1C[CH](O)CN1; Sar = CNCC(=O)O
Recorded GI50 for the following molecules
VALUE TYPE: GI50

{"MOLECULE": "Cc1ccc(/N=N/N(C)C(=O)C(C)N)cc1 (stereo not given)", "VALUE TYPE": "GI50", "REPORTED MEASUREMENT": "> 100 µM (inactive)"}
{"MOLECULE": "O=C1NC(c2ccccc2)C1N(Cc1ccccc1)Cc1ccccc1 (stereo not given)", "VALUE TYPE": "GI50", "REPORTED MEASUREMENT": "> 100 µM (inactive)"}
{"MOLECULE": "COCCOCOC(CCCCO)c1cc(C)c(O[Si](C)(C)C(C)(C)C)c(C)c1 (stereo not given)", "VALUE TYPE": "GI50", "REPORTED MEASUREMENT": "6.05 µM (inactive)"}
{"MOLECULE": "Cc1cc(Cl)ccc1NC(=O)C(=O)Cc1occc(=O)c1O", "VALUE TYPE": "GI50", "REPORTED MEASUREMENT": "> 100 µM (inactive)"}
{"MOLECULE": "CC1C(c2ccc(N(C)C)cc2)c2cc3c(cc2OC1N1CCCC1)OCO3 (stereo not given)", "VALUE TYPE": "GI50", "REPORTED MEASUREMENT": "66.8 µM (inactive)"}
{"MOLECULE": "CC(C)CC1NC(=O)C(NC(=O)c2ncccc2O)C(C)OC(=O)C(c2ccccc2)N(C)C(=O)C(C)NC(=O)C(C(C)C(C)C)N(C)C(=O)CN(C)C(=O)C2CC(O)CN2C1=O (stereo not given) ({Picolinoyl(3-OH)}-TL[Hyp][Sar][X56]A[NMePhg]; ester 1-C; configuration not given here)", "VALUE TYPE": "GI50", "REPORTED MEASUREMENT": "51.3 µM (inactive)"}
{"MOLECULE": "CC(C)(CCl)NC(=O)c1cccc(C(=O)NC(C)(C)CCl)n1", "VALUE TYPE": "GI50", "REPORTED MEASUREMENT": "> 100 µM (inactive)"}
{"MOLECULE": "CC1(C)OCC(C2OC3OC(C)(C)OC3C2c2ccccc2)O1 (stereo not given)", "VALUE TYPE": "GI50", "REPORTED MEASUREMENT": "38.4 µM (inactive)"}
{"MOLECULE": "CN(C)CCNC(=O)c1cccc2c1nc(-c1ccncc1)c1ccccc12", "VALUE TYPE": "GI50", "REPORTED MEASUREMENT": "5.53 µM (inactive)"}
{"MOLECULE": "Cc1cnc2nc(-c3ccc(Cl)cc3)cc(O)c2c1", "VALUE TYPE": "GI50", "REPORTED MEASUREMENT": "19.7 µM (inactive)"}
